biological target: C-C chemokine receptor type 2 (Homo sapiens) (UniProt P41597); test: Antagonist activity at CCR2 in human THP1 cells assessed as inhibition of CCL2-induced chemotaxis after 2 hrs by microtiter format trans-well migration assay; assay type: functional, cell-based; settings: THP-1
Sequence (P41597 whole entry, looked up): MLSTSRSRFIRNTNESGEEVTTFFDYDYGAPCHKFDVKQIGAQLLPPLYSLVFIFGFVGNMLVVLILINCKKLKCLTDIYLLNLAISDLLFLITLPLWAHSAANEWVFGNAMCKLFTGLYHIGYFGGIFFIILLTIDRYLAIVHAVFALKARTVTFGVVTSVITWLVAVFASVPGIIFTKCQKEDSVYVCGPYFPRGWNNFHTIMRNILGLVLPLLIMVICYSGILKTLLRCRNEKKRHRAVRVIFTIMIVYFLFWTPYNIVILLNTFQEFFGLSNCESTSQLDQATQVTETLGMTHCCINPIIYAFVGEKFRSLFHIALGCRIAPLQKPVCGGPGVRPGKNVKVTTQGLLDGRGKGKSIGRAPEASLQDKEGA
# strict inequality: ED50 < 0.8 nM yields true (1), everything else yields false (0)

Worked examples, 6 molecules total:
molecule	group
CC(C)(C)C(=O)N[C@H]1CCCCNC1=O	true (1)
O=C1NCCCC[C@H]1NC(=O)C12CC3CC(CC(C3)C1)C2	true (1)
CC1(C(=O)N[C@H]2CCCCNC2=O)CCCCC1	true (1)
C=CCC(C)(C)C(=O)N[C@H]1CCCCNC1=O	false (0)
CCC(C)(C)C(=O)N[C@H]1CCCCNC1=O	true (1)
CCCCCCCCCCC(C)C(=O)N[C@H]1CCCCNC1=O (mixture of isomers; form 2)	false (0)

Would you kindly verify if ED50 of CCCCCC1CCC(C(=O)N[C@H]2CCCCNC2=O)CC1 (stereo partly specified) is strictly less than 0.8 nM?
false (0)

Field entry: CC(C)CCC(C)(C)C(=O)N[C@H]1CCCCNC1=O
true (1)

Field entry: CCCCCCCCCCCC(=O)N[C@H]1CCCCNC1=O
false (0)

====

Kindly state half-life for each of the entries shown.
assay: Half life in Sprague-Dawley rat at 1 mg/kg, iv administered as single dose; type: ADME, organism-based; set-up: dose 1 mg/kg, route intravenous; settings: in vivo
One number for each entry, in min.

See these solved cases before continuing.
compound.structure.string	value.kind	units.symbol	numeric.readout
CC(C)(C)C(=O)N[C@H]1CCCCNC1=O	half-life	min	121
CCCCCCCCCCC(C)(C)C(=O)N[C@H]1CCCCNC1=O	half-life	min	46
O=C1NCCCC[C@@H]1NC(=O)C12CC3CC(CC(C3)C1)C2	half-life	min	16

Please give the measured half-life for this compound: CC1(C(=O)N[C@H]2CCCCNC2=O)CCCCC1
11

====

test system: Mus musculus; assay: Antiinflammatory activity in sc dosed mouse assessed as inhibition of LPS-induced TNFalpha upregulation measured 2 hrs after LPS challenge; format: functional
value.kind: ED50
Form entry: enter the amount, then its unit.

compound.structure.string	target.desc	ED50
O=C1NCCCC[C@@H]1NC(=O)C12CC3CC(CC(C3)C1)C2	Mus musculus	2 µg/kg
CC1(C(=O)N[C@H]2CCCCNC2=O)CCCCC1	Mus musculus	0.33 µg/kg
CC(C)(C)C(=O)N[C@H]1CCCCNC1=O	Mus musculus	0.1 µg/kg
C[C@@H]1C[C@H]2[C@@H]3CCC4=CC(=O)C=C[C@]4(C)[C@@]3(F)[C@@H](O)C[C@]2(C)[C@@]1(O)C(=O)CO	Mus musculus	3 µg/kg

// next entry
Please give the measured ED50 for this molecule: CCCCCCCCCCC(C)(C)C(=O)N[C@H]1CCCCNC1=O
0.15 µg/kg

====

assay: Volume of distribution at steady state in Sprague-Dawley rat at 1 mg/kg, iv administered as single dose; format: ADME, organism-based; parameters: dose 1 mg/kg, route intravenous; details: in vivo, read-out: Vdss
Kindly state Vd for each of the entries shown.
Answers are plain numbers, in L/kg.

See these solved cases before continuing.
compound.structure.string	units.symbol	numeric.readout
O=C1NCCCC[C@@H]1NC(=O)C12CC3CC(CC(C3)C1)C2	L/kg	0.8
CC(C)(C)C(=O)N[C@H]1CCCCNC1=O	L/kg	0.7
CC1(C(=O)N[C@H]2CCCCNC2=O)CCCCC1	L/kg	0.6

// next entry
Please give the measured Vd for this compound: CCCCCCCCCCC(C)(C)C(=O)N[C@H]1CCCCNC1=O
2

====

Kindly state inhibition for each of the entries shown.
target: C-C chemokine receptor type 2 (Homo sapiens) (UniProt P41597); assay: Antagonist activity at CCR2 in human THP1 cells assessed as inhibition of CCL2-induced chemotaxis at 100 nM after 2 hrs by microtiter format trans-well migration assay; assay type: functional, cell-based; settings: THP-1
Give bare numbers, in %.

Provide each entry's inhibition from the list below.
1. CCCCCCCCCCC(C)(C)C(=O)N[C@H]1CCCCNC1=O
2. CCCCCCCCCCC(C)(C)C(=O)N[C@@H]1CCCCNC1=O
3. O=C1NCCCC[C@H]1NC(=O)C12CC3CC(CC(C3)C1)C2
4. CC1(C(=O)N[C@H]2CCCCNC2=O)CCCCC1
5. CC(C)(C)C(=O)N[C@H]1CCCCNC1=O

93
101
101
99
101

Please give the measured inhibition for this compound: O=C1NCCCC[C@@H]1NC(=O)C12CC3CC(CC(C3)C1)C2
98

====

biological target: C-C chemokine receptor type 2 (Homo sapiens); test: Antagonist activity at CCR2 in human THP1 cells assessed as inhibition of CCL2-induced chemotaxis after 2 hrs by microtiter format trans-well migration assay; format: functional, cell-based; conditions: THP-1
Kindly state log10 ED50 for each of the entries shown.
Please note: log10 values; quantity ED50; unit nM.

molecule	numeric.readout
CCCC(C)(C)C(=O)N[C@H]1CCCCNC1=O	-0.30
O=C1NCCCC[C@@H]1NC(=O)C12CC3CC(CC(C3)C1)C2	-1.05
CCCCCCCCCCC(C)C(=O)N[C@H]1CCCCNC1=O (mixture of isomers; form 1)	0.48
CCCCCCCCC/C=C(\C)C(=O)N[C@H]1CCCCNC1=O	1.00
CC(C)=CCC(C)(C)C(=O)N[C@H]1CCCCNC1=O	-0.70

Provide each entry's log10 ED50 from the list below.
1. CCCCCCCCCCC(C)(C)C(=O)N[C@H]1CCCCNC1=O
2. CCCCCCCCCC(C)(C)CC(=O)N[C@H]1CCCCNC1=O

1: -1.05; 2: 0.60

Provide each entry's log10 ED50 from the list below.
1. CC(CCl)(CCl)C(=O)N[C@H]1CCCCNC1=O
2. CCCCCC12CCC(C(=O)N[C@H]3CCCCNC3=O)(CC1)CC2
3. CCCCCCCCCCC(C)(C)C(=O)N[C@@H]1CCCCNC1=O
4. O=C(N[C@H]1CCCCNC1=O)C1CCCCC1

[0.95, 0.85, 0.65, -0.30]

====

target: UniProt:P41597; assay: Antagonist activity at CCR2 in human THP1 cells assessed as inhibition of CCL2-induced chemotaxis at 1000 nM after 2 hrs by microtiter format trans-well migration assay; assay type: functional, cell-based; conditions: THP-1
Kindly state inhibition for each of the entries shown.
One number for each entry, in %.

See these solved cases before continuing.
compound.structure.string	units.symbol	inhibition
CC(C)(C)C(=O)N[C@H]1CCCCNC1=O	%	102
O=C1NCCCC[C@H]1NC(=O)C12CC3CC(CC(C3)C1)C2	%	100
CCCCCCCCCCC(C)(C)C(=O)N[C@H]1CCCCNC1=O	%	97
CCCCCCCCCCC(C)(C)C(=O)N[C@@H]1CCCCNC1=O	%	98.5
CC1(C(=O)N[C@H]2CCCCNC2=O)CCCCC1	%	100

// next entry
Please give the measured inhibition for this compound: O=C1NCCCC[C@@H]1NC(=O)C12CC3CC(CC(C3)C1)C2
100

====

biological target: C-C chemokine receptor type 2 (Homo sapiens) (UniProt P41597); assay: Antagonist activity at CCR2 in human THP1 cells assessed as inhibition of CCL2-induced chemotaxis at 0.01 nM after 2 hrs by microtiter format trans-well migration assay; format: functional, cell-based; conditions: THP-1
value.kind: inhibition (%)
Give bare numbers, in %.

compound.structure.string	target.desc	value.kind	numeric.readout
CCCCCCCCCCC(C)(C)C(=O)N[C@H]1CCCCNC1=O	C-C chemokine receptor type 2 (Homo sapiens) (UniProt P41597)	inhibition	12
CC(C)(C)C(=O)N[C@H]1CCCCNC1=O	C-C chemokine receptor type 2 (Homo sapiens) (UniProt P41597)	inhibition	33
O=C1NCCCC[C@H]1NC(=O)C12CC3CC(CC(C3)C1)C2	C-C chemokine receptor type 2 (Homo sapiens) (UniProt P41597)	inhibition	26

What is its inhibition for C-C chemokine receptor type 2 (Homo sapiens) (UniProt P41597)? Entry: CCCCCCCCCCC(C)(C)C(=O)N[C@@H]1CCCCNC1=O
5

====

Kindly state bioavailability for each of the entries shown.
assay: Fractional bioavailability in Sprague-Dawley rat at 3 mg/kg, po administered as single dose; format: ADME, organism-based; conditions: in vivo
Answers are plain numbers, in %.

See these solved cases before continuing.
compound.structure.string	value.kind	numeric.readout
CCCCCCCCCCC(C)(C)C(=O)N[C@H]1CCCCNC1=O	bioavailability	16
CC(C)(C)C(=O)N[C@H]1CCCCNC1=O	bioavailability	71

Please give the measured bioavailability for this compound: CC1(C(=O)N[C@H]2CCCCNC2=O)CCCCC1
5

====

target: C-C chemokine receptor type 2 (Homo sapiens); test: Antagonist activity at CCR2 in human THP1 cells assessed as inhibition of CCL2-induced chemotaxis at 0.1 nM after 2 hrs by microtiter format trans-well migration assay; format: functional, cell-based; conditions: THP-1
Kindly state inhibition for each of the entries shown.
One number for each entry, in %.

See these solved cases before continuing.
compound.structure.string	units.symbol	inhibition
CC1(C(=O)N[C@H]2CCCCNC2=O)CCCCC1	%	38
O=C1NCCCC[C@@H]1NC(=O)C12CC3CC(CC(C3)C1)C2	%	11
O=C1NCCCC[C@H]1NC(=O)C12CC3CC(CC(C3)C1)C2	%	14

Provide each entry's inhibition from the list below.
1. CCCCCCCCCCC(C)(C)C(=O)N[C@@H]1CCCCNC1=O
2. CC(C)(C)C(=O)N[C@H]1CCCCNC1=O
3. CCCCCCCCCCC(C)(C)C(=O)N[C@H]1CCCCNC1=O

1: 20; 2: 80; 3: 53.5

Source listed as ChEMBL document CHEMBL1136923.
